Assay: Therapeutic index, CC50 for human HeLa cells to IC50 for Coxsackie virus B3 […]
Assay type: cell-based
Settings: read-out: Ratio CC50/IC50
OBSERVED PROPERTY: selectivity ratio

# COMPOUND, EXPERIMENTAL VALUE
measured = [
    ("COC(=O)[C@H]1C[C@@H](O)[C@]2(O)C(=O)[C@]3(C[C@H](OC(=O)c4ccccc4)[C@H](C)CO3)O[C@@H]2C1 [PHYLLAEMBLIC ACID METHY ESTER]", 9.8),
    ("NC(=O)c1ncn([C@@H]2O[C@H](CO)[C@@H](O)[C@H]2O)n1 [RIBAVIRIN]", 21),
    ("C[C@@H]1CO[C@@]2(C[C@@H]1OC(=O)c1ccccc1)O[C@@H]1C[C@@H](C(=O)O[C@@H]3O[C@H](CO)[C@@H](O)[C@H](O)[C@H]3O[C@@H]3O[C@H](CO)[C@@H](O)[C@H](O)[C@H]3O)C[C@@H](O)[C@]1(O)C2=O [PHYLLAEMBLICIN B]", 6.4),
]

// below: selectivity ratio requested for another compound
Form field selectivity ratio, entry C[C@@H]1CO[C@@]2(C[C@@H]1OC(=O)c1ccccc1)O[C@@H]1C[C@@H](C(=O)O[C@@H]3O[C@H](CO)[C@@H](O)[C@H](O)[C@H]3O[C@@H]3O[C@H](CO)[C@@H](O)[C@H](O)[C@H]3O[C@@H]3OC[C@@H](O)[C@@H](O)[C@@H]3O)C[C@@H](O)[C@]1(O)C2=O [PHYLLAEMBLICIN C] : 6.2

----------
Test: Cytotoxicity against human HeLa cells after 48 hrs by MTT assay
Format: cell-based
The following compounds are shown together with reported CC50 at 48 h values.
The reply should contain only the number, in µg/mL.

# STRUCTURE NOTATION, CC50 at 48 h / µg/mL
rows = [
    ("C[C@@H]1CO[C@@]2(C[C@@H]1OC(=O)c1ccccc1)O[C@@H]1C[C@@H](C(=O)O[C@@H]3O[C@H](CO)[C@@H](O)[C@H](O)[C@H]3O[C@@H]3O[C@H](CO)[C@@H](O)[C@H](O)[C@H]3O)C[C@@H](O)[C@]1(O)C2=O", 50.2),
    ("C[C@@H]1CO[C@@]2(C[C@@H]1OC(=O)c1ccccc1)O[C@@H]1C[C@@H](C(=O)O[C@@H]3O[C@H](CO)[C@@H](O)[C@H](O)[C@H]3O[C@@H]3O[C@H](CO)[C@@H](O)[C@H](O)[C@H]3O[C@@H]3OC[C@@H](O)[C@@H](O)[C@@H]3O)C[C@@H](O)[C@]1(O)C2=O", 67.7),
    ("COC(=O)[C@H]1C[C@@H](O)[C@]2(O)C(=O)[C@]3(C[C@H](OC(=O)c4ccccc4)[C@H](C)CO3)O[C@@H]2C1", 214),
]

// below: CC50 at 48 h requested for another compound
Form field CC50 at 48 h, entry NC(=O)c1ncn([C@@H]2O[C@H](CO)[C@@H](O)[C@H]2O)n1 : 426
